test system: NCI-H226; assay: NCI tumour cell line growth inhibition, 48 h
Calls of active or inactive are those of the source. Cut-off read from the data, not from the text of the source: active = GI50 up to about 1.1 µM and inactive = higher. Where a SMILES comes first, the peptide text is derived from it. The star is where a group is joined. Cbz = O=C(OCc1ccccc1)*; Boc = CC(C)(C)OC(=O)*; OSu = O=C1CCC(=O)N1O*; Bn = c1ccc(C*)cc1
MEASUREMENT_NAME: GI50

Examples with answers:
With NCI-H226 as the test system, "O=Cc1ccc(-c2nccc3c2[nH]c2ccccc23)o1" showed GI50 of 1.31 µM (inactive)

Record for CC(C)c1cccc(C(C)C)c1NC(=O)/C(CC(=O)CC(c1ccccc1)c1c(O)c2ccccc2oc1=O)=N/O (stereo not given) under target or system NCI-H226: GI50 reported as > 100 µM (inactive)

Noted GI50 for CC(C)(C)OC(=O)NC(Cc1ccc(OCc2ccccc2)cc1)C(=O)NC(CCCCNC(=O)OCc1ccccc1)C(=O)ON1C(=O)CCC1=O (stereo not given) (Boc-Tyr(Bn)-Lys(Cbz)-OSu; configuration not given here) , tested on NCI-H226: 29.2 µM (inactive)

GI50 on NCI-H226 for "Nc1ccc2c(O)cc(O)nc2n1" is > 100 µM (inactive)

# evaluate next
For Fc1cccc(C2SCc3nc4ccccc4n32)c1 (stereo not given) on NCI-H226, measured GI50 was 41.1 µM (inactive)

---

system: M14; assay: NCI tumour cell line growth inhibition, 48 h
Activity calls are given as the source filed them. Rule as the data show it: active = GI50 up to about 1.1 µM and inactive = higher.
# valid calls are 1 for active, -1 for inactive; nothing else

Study these solved cases before continuing.
Please indicate how the test categorized "O=CN/C=C/c1ccc(O)c(O)c1" .
-1

I would be grateful if you could indicate the recorded call for O=C1OS2(OC(=O)c3cccc4cccc2c34)c2ccccc21 (centres undefined) .
-1

Which outcome was entered for the compound "COc1ccc2c(c1)OC[C@@H]1c3cc4c(cc3O[C@H]21)OCO4" in this test?
-1

Hello, I am checking results. What call was entered for "CC1=C(SCCO)C(=O)c2ccccc2C1=O" ?
-1

For "NNC(=O)c1cc(=O)[nH][nH]1" , what call appears in the results of this test?
-1

Test call for this compound, please: "CCOC(=O)c1sc2c(C(=O)OCC)n3ccccc3c2c1N"
-1

Write down the call the test reported for this compound. Item: "CC(C)(C)c1cc(C(=O)/C=C/c2ccc3c(c2)OCO3)cc(C(C)(C)C)c1O"
-1

Recorded call for O=[N+]([O-])c1ccc(C2=Nc3ccccc3[S+]([O-])C(c3ccccc3)C2)cc1 (centres undefined) ?
-1

What call does the record list for "Clc1cc(N/N=C(\c2ccccc2)c2ccccn2)ncn1" ?
1

What classification did "Nc1nc(SCc2ccccn2)c2ncn(C3CCCC3)c2n1" end up with in this test?
-1

More entries:
Kindly provide the recorded test outcome for the following compound: CC(C)C(C)C(O)C(O)C(C)C1CCC2C3COC(=O)C4CC(O)C(O)CC4(C)C3CCC12C (centres undefined)
-1

Could you kindly confirm the outcome this assay logged for "CCCC1(CCC)c2cc(/C=N\O)ccc2-c2ccc(-c3ccc(C(C)(C)C)cc3)cc21" ?
-1

Dear all, I need the recorded test outcome for Cc1ccccc1S(=O)(=O)OC1NS(=O)(=O)c2ccccc21 (centres undefined) , thank you.
-1

Given "O=C1C(Br)=C(c2ccccc2)C(c2ccccc2)=C1c1ccccc1" , state the outcome it received in this test.
-1

Hey, what did the test say about "Clc1cccc(/C=N/C23CC4CC(CC(C4)C2)C3)c1Cl" ?
-1

Which outcome was entered for the compound "CCCCOCn1c(=O)[nH]c(=O)c2ccccc21" in this test?
-1
